- assay-comment: Cmax in rat at 10 mg/kg, po
- Type: ADME, organism-based
- Design: dose 10 mg/kg, route oral
- test-conditions: in vivo
quantity: Cmax (µM)
Just the number in µM, nothing appended.

Exam item: Fill in the blank: the reported Cmax of "COc1ccc2c(c1)NC1(CCN(C(=O)c3ccc(OC)c(N(C)C)c3)CC1)c1cccn1-2" is ____.
Marked response: 9.3

* * *

- assay-comment: Oral bioavailability in rat at 10 mg/kg
- Type: ADME, organism-based
- test-conditions: in vivo
quantity: bioavailability (%)
Just the number in %, nothing appended.

Exam item: Fill in the blank: the reported bioavailability of "COc1ccc2c(c1)NC1(CCN(C(=O)c3ccc(OC)c(N(C)C)c3)CC1)c1cccn1-2" is ____.
Marked response: 100

* * *

- assay-comment: Tmax in rat at 10 mg/kg, po
- Format: ADME, organism-based
- Design: dose 10 mg/kg, route oral
- test-conditions: in vivo
quantity: Tmax (h)
Just the number in h, nothing appended.

Exam item: Fill in the blank: the reported Tmax of "COc1ccc2c(c1)NC1(CCN(C(=O)c3ccc(OC)c(N(C)C)c3)CC1)c1cccn1-2" is ____.
Marked response: 1.3

* * *

- assay-comment: AUC (0 to 24 hrs) in rat at 10 mg/kg, po
- Format: ADME, organism-based
- Set-up: time < 24 hr, dose 10 mg/kg, route oral
- test-conditions: plasma
quantity: AUC(0-t) at 24 h (µM·h)
Just the number in µM·h, nothing appended.

Exam item: Fill in the blank: the reported AUC(0-t) at 24 h of "COc1ccc2c(c1)NC1(CCN(C(=O)c3ccc(OC)c(N(C)C)c3)CC1)c1cccn1-2" is ____.
Marked response: 65.9

* * *

- assay-comment: Mean residence time in rat at 3 mg/kg, iv
- Assay type: ADME, organism-based
- Set-up: dose 3 mg/kg, route intravenous
- test-conditions: in vivo
quantity: MRT (h)
Just the number in h, nothing appended.

Exam item: Fill in the blank: the reported MRT of "COc1ccc2c(c1)NC1(CCN(C(=O)c3ccc(OC)c(N(C)C)c3)CC1)c1cccn1-2" is ____.
Marked response: 3

* * *

- assay-comment: in vivo
- test-conditions: rat, in vivo, po, 10 mg/kg
AUC(0-t) at 6 h vs 20 µM·h: less than gives class 1; not less than gives class 0.

Example entries and their recorded answers appear below.
N#Cc1ccc(C(=O)N2CCC3(CC2)Nc2ccc(Br)cc2-n2cccc23)cc1 :: class 0
N#Cc1ccc(C(=O)N2CCC3(CC2)Nc2ccc(Cl)cc2-n2cccc23)cc1 :: class 0
COc1ccc2c(c1)NC1(CCN(C(=O)c3ccc(Cl)cc3)CC1)c1cccn1-2 :: class 1
COc1ccc2c(c1)NC1(CCN(C(=O)c3ccc(C#N)cc3)CC1)c1cccn1-2 :: class 0
N#Cc1ccc(C(=O)N2CCC3(CC2)Nc2cc(Cl)ccc2-n2cccc23)cc1 :: class 1

Exam item: Report whether reported AUC(0-t) at 6 h is lower than 20 µM·h (strictly) for "COc1ccc(C(=O)N2CCC3(CC2)Nc2cc(OC)ccc2-n2cccc23)cc1"
Marked response: class 0

Exam item: Report whether reported AUC(0-t) at 6 h is lower than 20 µM·h (strictly) for "COc1ccc2c(c1)NC1(CCN(C(=O)c3ccc(C#N)c(OC)c3)CC1)c1cccn1-2"
Marked response: class 0

Exam item: Report whether reported AUC(0-t) at 6 h is lower than 20 µM·h (strictly) for "COc1ccc2c(c1)NC1(CCN(Cc3ccccc3)CC1)c1cccn1-2"
Marked response: class 1

Exam item: Report whether reported AUC(0-t) at 6 h is lower than 20 µM·h (strictly) for "COc1ccc2c(c1)NC1(CCN(C(=O)c3cccc(C#N)c3)CC1)c1cccn1-2"
Marked response: class 1
